experiment notes: decrease of insulin promoter-GFP reporter – imaging, high-content screening, mouse beta cells (AID 1628)
condition info: MIN6 insulin promoter GFP reporter, at 5 µM
About 930 (0.49%) of roughly 190,000 compounds were called active.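 Rule for the calls: active = z-score of insulin promoter reporter brightness in nuclei below -3 at 5 µM, with at least 500 cells counted; inconclusive = wells with under 500 cells, flagged as toxic or sparse; inactive = the rest.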 The list shows a part of the results. Measured potencies and affinities stand elsewhere.
Mark one answer only. Choices: TRUE (active), FALSE (inactive)

{"compound": "COc1c2ccoc2nc2c(OC)c(O)ccc12", "group": "FALSE"}
{"compound": "S=C(Nc1ccccc1Cl)N(CCCN1CCOCC1)Cc1ccco1", "group": "TRUE"}
{"compound": "CCCN1C(=O)S/C(=C\\c2ccc(N3CCOCC3)o2)C1=O", "group": "FALSE"}
{"compound": "COCCNC(=O)Cc1ccc(F)cc1", "group": "FALSE"}
{"compound": "CCOc1ccc(C2C(C#N)=C(N)SC(N)=C2C#N)c(OCC)c1", "group": "TRUE"}

(Q) Hi, sorry to bother you, what did the test record for COc1ccc(N(C)S(=O)(=O)c2cccc(C(=O)Nc3nc4ccccc4[nH]3)c2)cc1 ?
(A) TRUE

(Q) Hi, sorry to bother you, what did the test record for C#CCOCCOCCOCCNc1nc(N2CCN(C(=O)[C@H](CCCCN)n3cc(CCCC)nn3)CC2)nc(N2CCN(C(=O)[C@H](CCCCN)n3cc(CCCC)nn3)CC2)n1 ?
(A) TRUE

(Q) Hi, sorry to bother you, what did the test record for CN(C)C(=O)C1C2NC(=S)N(c3cccc(Cl)c3)C1(C)Oc1ccc(Cl)cc12 (configuration not stated) ?
(A) FALSE

(Q) Hi, sorry to bother you, what did the test record for COC(=O)c1sc(NC(=O)c2ccco2)nc1C ?
(A) FALSE

(Q) Hi, sorry to bother you, what did the test record for c1ccc2c(c1)oc1c(N3CCN(Cc4ccc5c(c4)OCO5)CC3)ncnc12 ?
(A) TRUE

(Q) Hi, sorry to bother you, what did the test record for Cc1noc(C)c1CS(=O)(=O)c1ccc(Br)cc1 ?
(A) FALSE

(Q) Hi, sorry to bother you, what did the test record for N/C(=N\OC(=O)C1CCCCC1)c1cccc([N+](=O)[O-])c1 ?
(A) FALSE
